test system: SARS-CoV-2 WA1 virus; conditions: WA1 virus
Where no end group is shown, it is not given here.
reported_metric: IC50

[Q] Find the recorded IC50 belonging to GRKKRRQRRRPPQMYSFVSDDTGTLIVNSVL [iPep-SARS2-E] and report it.
[A] ~200 nM
